Just for reference, paper PMC5494963 is where these values come from.

MEASUREMENT_TARGET: cytochrome c oxidase (complex IV) (Bos taurus)
RUN_DESCRIPTION: spectrophotometric ferrocytochrome c oxidation at […] nm
REPORTED_PROPERTY: pKi
Answers are plain numbers, as −log10 of the molar value.

What pKi value was documented for this compound, S [sulfide] ?
7.07
